# Test system: non-cancerous cells
# EXPERIMENT DESCRIPTION: Viable non-cancerous cells after incubation with anticancer drugs in various media
# Format: cell-based
REPORTED ENDPOINT: Percentage of viable cells, Drugs in commercial formula (%)

| COMPOUND | RECORDED RESULT |
| --- | --- |
| N.N.O=C([O-])C1(C(=O)[O-])CCC1.[Pt+2] [Carboplatin] | 50 |
| O=C1[O][Pt]2([NH][C@@H]3CCCC[C@H]3[NH]2)[O]C1=O [oxaliplatin] | 24 |
| O=c1[nH]c(=O)n([C@H]2C[C@H](O)[C@@H](CO)O2)cc1F [floxuridine] | 38 |
| CN(Cc1cnc2nc(N)nc(N)c2n1)c1ccc(C(=O)N[C@@H](CCC(=O)O)C(=O)O)cc1 [methotrexate] | 43 |
| CC(C)(C#N)c1cc(Cn2cncn2)cc(C(C)(C)C#N)c1 [anastrozole] | 25 |
